conditions: in 1,4-dioxane, 293.15 K
Result Type: solubility (mole fraction)
Provide a numeric answer; units are not to be included.

Notebook: `c1ccc2[nH]cnc2c1` , solubility (mole fraction) read as 0.0192

---

settings: in isobutyl acetate, 323.15 K
Result Type: solubility (mole fraction)
Just the number, please, no unit attached.

Per the record, `c1ccc2[nH]cnc2c1` has solubility (mole fraction) of 0.0197

---

details: in n-butanol, 323.15 K
Result Type: solubility (mole fraction)
Answer with a number only.

In plain terms, `c1ccc2[nH]cnc2c1` has a documented solubility (mole fraction) of 0.161

---

details: in ethanol, 293.15 K
Result Type: solubility (mole fraction)
Write no unit; give the number alone.

Please fill in: solubility (mole fraction) reported for `c1ccc2[nH]cnc2c1` = 0.0911

---

details: in acetone, 313.15 K
Result Type: solubility (mole fraction)
Give the figure only, with no unit attached.

Item: `c1ccc2[nH]cnc2c1` | solubility (mole fraction): 0.0452

---

conditions: in isopropyl acetate, 323.15 K
Result Type: solubility (mole fraction)
The answer should be written as a number, with no unit following it.

// field: solubility (mole fraction); key: `c1ccc2[nH]cnc2c1` ; value = 0.0219

---

details: in methyl acetate, 298.15 K
Result Type: solubility (mole fraction)
Note: the reply should be a number with no unit written.

Quick note, solubility (mole fraction) for `c1ccc2[nH]cnc2c1` landed at 0.0126

---

settings: in ethyl acetate, 323.15 K
Result Type: solubility (mole fraction)
No unit in the answer, please; the number alone is enough.

solubility (mole fraction) for `c1ccc2[nH]cnc2c1` is 0.0259

---

details: in methanol, 303.15 K
Result Type: solubility (mole fraction)
// return a plain number; no unit text

Just so you know, measured solubility (mole fraction) for `c1ccc2[nH]cnc2c1` came out at 0.12

---

conditions: in n-pentanol, 303.15 K
Result Type: solubility (mole fraction)
// no unit string in output, number only

get_value(item= `c1ccc2[nH]cnc2c1` , readout=solubility (mole fraction)) returns 0.129

---

details: in isobutanol, 313.15 K
Result Type: solubility (mole fraction)
# print the numeric value only

solubility (mole fraction) for `c1ccc2[nH]cnc2c1` is 0.134

---

settings: in n-propanol, 318.15 K
Result Type: solubility (mole fraction)
Reply with the value as a number alone.

The compound identified as `c1ccc2[nH]cnc2c1` registered its solubility (mole fraction) at 0.147

---

conditions: in isobutyl acetate, 288.15 K
Result Type: solubility (mole fraction)

solubility (mole fraction) recorded for this compound, `c1ccc2[nH]cnc2c1` , is 0.00808

---

details: in 2-butanone, 318.15 K
Result Type: solubility (mole fraction)

For reference, reported solubility (mole fraction) for `c1ccc2[nH]cnc2c1` stands at 0.0582

---

details: in 2-butanone, 313.15 K
Result Type: solubility (mole fraction)
Lab note: jot down the number only; don't add units.

solubility (mole fraction) recorded for this compound, `c1ccc2[nH]cnc2c1` , is 0.0521

---

conditions: in isobutanol, 283.15 K
Result Type: solubility (mole fraction)
Form: value (number only, do not type unit).

get_value(item= `c1ccc2[nH]cnc2c1` , readout=solubility (mole fraction)) returns 0.0747

---

details: in 1,4-dioxane, 303.15 K
Result Type: solubility (mole fraction)
Reply with just the number.

Given item `c1ccc2[nH]cnc2c1` , the value recorded as its solubility (mole fraction) is 0.0242
